Entries and their measured binding signal follow.
Molecular target: T1, RBFOX1 RRM (Homo sapiens, UniProt Q9NWB1 109-208)
T1 sequence: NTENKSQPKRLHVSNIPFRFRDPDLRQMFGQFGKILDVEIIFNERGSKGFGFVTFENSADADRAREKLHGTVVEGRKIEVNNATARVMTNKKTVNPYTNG
Assay: EMSA; HiTS-Eq, 1 nM pool, 10 min; buffer printed only for the single-RNA assays: 10 mM Tris pH 7.5, 150 mM NaCl, 3.4 mM EDTA, 0.001% NP-40, 30 C
Conditions: tags: His6 N-terminal (pET28a); label: 5' 32P
The full ranking holds about 16,000 sequences; the median of “ka relative to ugcaugu” is about 0.0091, and the highest 2% start at about 0.032. The full list was thinned out, with the highest values kept by preference.

Consider the following illustrative entries.
UCGUCCC (DNA:RNA) RNA: GGGAGACCGGAAUUCAGAUUGUCCUCGUCCCUUAAAUCCCGUCGUAGCCACCA DNA 1: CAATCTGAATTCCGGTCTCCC DNA 2: TGGTGGCTACGACGGGATT ... 0.00735 KA relative to UGCAUGU
AGCAGAA (DNA:RNA) RNA: GGGAGACCGGAAUUCAGAUUGUCCAGCAGAAUUAAAUCCCGUCGUAGCCACCA DNA 1: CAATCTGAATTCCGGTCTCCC DNA 2: TGGTGGCTACGACGGGATT ... 0.00732 KA relative to UGCAUGU
GGGGGGU (DNA:RNA) RNA: GGGAGACCGGAAUUCAGAUUGUCCGGGGGGUUUAAAUCCCGUCGUAGCCACCA DNA 1: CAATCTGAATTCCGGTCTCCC DNA 2: TGGTGGCTACGACGGGATT ... 0.0254 KA relative to UGCAUGU
GGGGUUU (DNA:RNA) RNA: GGGAGACCGGAAUUCAGAUUGUCCGGGGUUUUUAAAUCCCGUCGUAGCCACCA DNA 1: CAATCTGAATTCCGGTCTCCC DNA 2: TGGTGGCTACGACGGGATT ... 0.046 KA relative to UGCAUGU

Task item: Quick check: binding signal of UGUGACC (DNA:RNA) RNA: GGGAGACCGGAAUUCAGAUUGUCCUGUGACCUUAAAUCCCGUCGUAGCCACCA DNA 1: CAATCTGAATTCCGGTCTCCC DNA 2: TGGTGGCTACGACGGGATT ?
Reply: 0.0155 KA relative to UGCAUGU

Task item: Item: UUUGCUU (DNA:RNA) RNA: GGGAGACCGGAAUUCAGAUUGUCCUUUGCUUUUAAAUCCCGUCGUAGCCACCA DNA 1: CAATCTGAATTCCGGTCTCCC DNA 2: TGGTGGCTACGACGGGATT
Reply: 0.0228 KA relative to UGCAUGU

Task item: Item: CGGAGUG (DNA:RNA) RNA: GGGAGACCGGAAUUCAGAUUGUCCCGGAGUGUUAAAUCCCGUCGUAGCCACCA DNA 1: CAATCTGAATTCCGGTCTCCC DNA 2: TGGTGGCTACGACGGGATT
Reply: 0.0283 KA relative to UGCAUGU

Task item: Item: GCGGGGU (DNA:RNA) RNA: GGGAGACCGGAAUUCAGAUUGUCCGCGGGGUUUAAAUCCCGUCGUAGCCACCA DNA 1: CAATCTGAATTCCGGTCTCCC DNA 2: TGGTGGCTACGACGGGATT
Reply: 0.0285 KA relative to UGCAUGU

Task item: Item: CGGGGGU (DNA:RNA) RNA: GGGAGACCGGAAUUCAGAUUGUCCCGGGGGUUUAAAUCCCGUCGUAGCCACCA DNA 1: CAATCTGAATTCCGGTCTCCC DNA 2: TGGTGGCTACGACGGGATT
Reply: 0.0227 KA relative to UGCAUGU
